Data credit: ChEMBL document CHEMBL3739335

- assay-summary: Chemical stability of the compound in buffer assessed as compound remaining at pH 4 after 24 hrs by HPLC analysis
- Format: physicochemical
- condition-info: read-out: Stability
readout-label: remaining at 24 h (%)

CC(C)[C@]12O[C@H]1[C@@H]1O[C@]13[C@]1(O[C@H]1C[C@H]1C4=C(CC[C@@]13C)C(=O)OC4)[C@@H]2OCOP(=O)([O-])[O-].[Na+].[Na+] [MINNELIDE]    99

====

- assay-summary: Chemical stability of the compound in buffer assessed as compound remaining at pH 6 after 24 hrs by HPLC analysis
- Format: physicochemical
- condition-info: read-out: Stability
readout-label: remaining at 24 h (%)

CC(C)[C@]12O[C@H]1[C@@H]1O[C@]13[C@]1(O[C@H]1C[C@H]1C4=C(CC[C@@]13C)C(=O)OC4)[C@@H]2OCOP(=O)([O-])[O-].[Na+].[Na+] [MINNELIDE]    99

====

- assay-summary: Chemical stability of the compound in buffer assessed as compound remaining at pH 7.4 after 4 hrs by HPLC analysis
- Assay type: physicochemical
- condition-info: read-out: Stability
readout-label: remaining at 4 h (%)

CC(C)[C@]12O[C@H]1[C@@H]1O[C@]13[C@]1(O[C@H]1C[C@H]1C4=C(CC[C@@]13C)C(=O)OC4)[C@@H]2OCOP(=O)([O-])[O-].[Na+].[Na+] [MINNELIDE]    100

====

- assay-summary: Stability of the compound in simulated gastric fluid assessed as compound remaining after 8 hrs by HPLC analysis
readout-label: remaining at 8 h (%)

CC(C)[C@]12O[C@H]1[C@@H]1O[C@]13[C@]1(O[C@H]1C[C@H]1C4=C(CC[C@@]13C)C(=O)OC4)[C@@H]2OCOP(=O)([O-])[O-].[Na+].[Na+] [MINNELIDE]    47

====

- assay-summary: Chemical stability of the compound in buffer assessed as compound remaining at pH 1 after 1 hr by HPLC analysis
- Format: physicochemical
- condition-info: read-out: Stability
readout-label: remaining at 1 h

CC(C)[C@]12O[C@H]1[C@@H]1O[C@]13[C@]1(O[C@H]1C[C@H]1C4=C(CC[C@@]13C)C(=O)OC4)[C@@H]2OCOP(=O)([O-])[O-].[Na+].[Na+] [MINNELIDE]    89%

====

- assay-summary: Chemical stability of the compound in buffer assessed as compound remaining at pH 2 after 8 hrs by HPLC analysis
- Assay type: physicochemical
- condition-info: read-out: Stability
readout-label: remaining at 8 h (%)

CC(C)[C@]12O[C@H]1[C@@H]1O[C@]13[C@]1(O[C@H]1C[C@H]1C4=C(CC[C@@]13C)C(=O)OC4)[C@@H]2OCOP(=O)([O-])[O-].[Na+].[Na+] [MINNELIDE]    94

====

- assay-summary: Chemical stability of the compound in buffer assessed as compound remaining at pH 9 after 8 hrs by HPLC analysis
- Format: physicochemical
- condition-info: read-out: Stability
readout-label: remaining at 8 h (%)

CC(C)[C@]12O[C@H]1[C@@H]1O[C@]13[C@]1(O[C@H]1C[C@H]1C4=C(CC[C@@]13C)C(=O)OC4)[C@@H]2OCOP(=O)([O-])[O-].[Na+].[Na+] [MINNELIDE]    100
